Hello, the source for this data is patent US20200087364A1, in case you need it.

target: T1, HLA-A*01:01 (human); test: UV-ligand exchange, anti-b2m ELISA
T1 construct: MHC class I monomer first loaded with a UV-sensitive peptide (not identified) that is cleaved by UV irradiation and exchanged for the tested peptide; captured on streptavidin plates, detected with anti-β2m; also called peptide-receptive MHC molecules
endpoint: peptide exchange yield

The cases that follow already have their peptide exchange yield on record.
EVYDGREHSAY
20 to 50%
NVKHFLNDLY
50 to 75%
EVDRNLIQY
50 to 75%

Data request: Please report the recorded peptide exchange yield for YIGLKGLYF .
Data returned: 20 to 50%

Data request: Please report the recorded peptide exchange yield for LSDAVHVEF .
Data returned: 50 to 75%

Data request: Please report the recorded peptide exchange yield for TCSHTFVYY .
Data returned: 20 to 50%

Data request: Please report the recorded peptide exchange yield for VACGNNPVY .
Data returned: 50 to 75%
